- System Tested: recombinant 15-PGDH (Homo sapiens (Human))
- Protocol Summary: Enzyme inhibition of recombinant 15-PGDH, in vitro assay
- Type: biochemical
- Condition Summary: recombinant human 15-PGDH; read-out: Enzyme inhibition (IC50)
pIC50: −log10 of the molar value.
Please respond with reported pIC50 for every item in the list.

Item `CCN(CC)C(=O)c1cc2nc(-c3ccc(OC)cc3)cc(C(F)(F)F)n2n1` has what recorded pIC50?
7.00

Item COc1ccc(-c2cc(-c3ccnc(Cl)c3)n3nc(C(=O)N4CCCCC4)cc3n2)cc1 [25a] has what recorded pIC50?
< 7.00

Item COc1ccc(-c2cc(C(F)(F)F)n3nc(C(=O)N4CCCCCC4)cc3n2)cc1 [11a] has what recorded pIC50?
7.72

Item COc1ccc(-c2cc(C3CC3)n3nc(C(=O)N4CCCCC4)cc3n2)cc1 [67a] has what recorded pIC50?
7.70 to 8.40

Item COc1ccc(-c2cc(-c3cnn(C)c3)n3nc(C(=O)N4CCCCC4)cc3n2)cc1 [29a] has what recorded pIC50?
7.00 to 7.70

Item O=C(c1ccc2nc(-c3ccccc3)c(-c3ccncc3)nc2c1)N1CCCCC1 [34b] has what recorded pIC50?
7.70

Item COc1ccc(-c2cc(C(F)(F)F)n3nc(C(=O)N4CCCC(=O)C4)cc3n2)cc1 [62a] has what recorded pIC50?
5.60 to 6.30

Item O=C(c1ccc2ncc(-c3ccc(F)cc3F)nc2c1)N1CCCCC1 [45b] has what recorded pIC50?
8.40

Item COc1ccc(-c2cc(C(F)(F)F)n3nc(C(=O)N4CCCCC4CO)cc3n2)cc1 (stereo not shown) [17a] has what recorded pIC50?
> 7.00

Item COc1ccc(-c2cc(C(F)(F)F)n3nc(C(=O)N4CCCCC4C)cc3n2)cc1 (stereo not shown) [20a] has what recorded pIC50?
7.48

Item CCOC(=O)c1[nH]c2ccc(-c3cnc4ccc(C(=O)N5CCCCC5)cc4n3)cc2c1C [91b] has what recorded pIC50?
~8.40

Item `COc1ccc(-c2cc(C(F)(F)F)n3nc(C(=O)N4CCCCC4)cc3n2)cc1` has what recorded pIC50?
7.62

Item Cn1cc(-c2nc3cc(C(=O)N4CCCCC4)ccc3nc2-c2ccccc2)cn1 [37b] has what recorded pIC50?
7.00 to 7.70

Item CCCC[S+]([O-])c1cc2nc(-c3nccs3)cc(C(F)(F)F)n2n1 (stereo not shown) [48a] has what recorded pIC50?
7.00 to 7.70

Item COc1ccc(-c2cc(C)n3nc(C(=O)N4CCCCC4)cc3n2)cc1 [35a] has what recorded pIC50?
7.00

Item CCCC[S+]([O-])c1cc2nc(-c3ccc(OC)cc3)cc(-c3cccn3C)n2n1 (stereo not shown) [54a] has what recorded pIC50?
7.70 to 8.40

Item Cn1nccc1-c1nc(-c2ccccc2)nc2cc(C(=O)N3CCCCC3)ccc12 [90b] has what recorded pIC50?
~8.40

Item `CCCCSc1cc2nc(-c3ccc(OC)cc3)cc(C(F)(F)F)n2n1` has what recorded pIC50?
< 5.60

Item COc1ccc(-c2cc(-c3cccn3C)n3nc(C(=O)N4CCCCC4)cc3n2)cc1 [71a] has what recorded pIC50?
7.00 to 7.70

----------
- System: PGE2 in A549 cell culture
- Protocol Summary: Induction of PGE2 in A549 cell culture
- Format: cell-based
- Condition Summary: 2.5 μM compound, A549 cells
Outcome Measure: induction of PGE2 in A549 cell culture at 2.5 μM (fold)
Return type: number; implicit unit fold.

Item CCCC[S+]([O-])c1cc2nc(-c3ccc(OC)cc3)cc(C(F)(F)F)n2n1 (stereo not shown) [3a] has what recorded induction of PGE2 in A549 cell culture at 2.5 μM (fold)?
2.13

Item COc1ccc(-c2cc(C(F)(F)F)n3nc(C(=O)N4CCCCC4)cc3n2)cc1 [1a] has what recorded induction of PGE2 in A549 cell culture at 2.5 μM (fold)?
1.89

Item CCCC[S+]([O-])c1cc2nc(-c3ccc(OC)cc3)cc(-c3ccccc3)n2n1 (stereo not shown) [5a] has what recorded induction of PGE2 in A549 cell culture at 2.5 μM (fold)?
1.69

Item O=C(c1ccc2nc(-c3ccccc3)c(-c3ccccc3)nc2c1)N1CCCCC1 [1b] has what recorded induction of PGE2 in A549 cell culture at 2.5 μM (fold)?
1.87

----------
Please respond with reported pIC50 for every item in the list.
- System Tested: recombinant 15-PGDH (Homo sapiens (Human), UniProt P15428)
- Sequence (P15428 whole entry): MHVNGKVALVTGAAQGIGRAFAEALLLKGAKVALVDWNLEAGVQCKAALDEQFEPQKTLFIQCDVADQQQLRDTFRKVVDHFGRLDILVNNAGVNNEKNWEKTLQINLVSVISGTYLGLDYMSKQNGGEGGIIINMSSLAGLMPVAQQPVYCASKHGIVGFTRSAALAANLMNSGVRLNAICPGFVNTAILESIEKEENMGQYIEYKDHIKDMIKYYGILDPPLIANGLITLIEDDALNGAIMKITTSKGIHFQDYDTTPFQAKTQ
- Protocol Summary: Enzyme inhibition of recombinant 15-PGDH, in vitro assay
- Format: biochemical
- Condition Summary: recombinant human 15-PGDH; read-out: Enzyme inhibition (IC50)
pIC50: −log10 of the molar value.

Find the measured pIC50: item CNC(=O)c1[nH]c2ccc(-c3cnc4ccc(C(=O)N5CCCCC5)cc4n3)cc2c1C [94b] , target or system recombinant 15-PGDH (Homo sapiens (Human), UniProt P15428).
> 8.40

Find the measured pIC50: item Cn1cc(-c2cc(C(F)(F)F)n3nc(C(=O)N4CCCCC4)cc3n2)cn1 [38a] , target or system recombinant 15-PGDH (Homo sapiens (Human), UniProt P15428).
< 5.60

Find the measured pIC50: item O=C(c1ccc2nc(-c3ccccc3)c(-c3cccnc3)nc2c1)N1CCCCC1 [33b] , target or system recombinant 15-PGDH (Homo sapiens (Human), UniProt P15428).
7.70

Find the measured pIC50: item COc1ccc(-c2cc(C(F)(F)F)n3nc(C(=O)N4CCCC(C)(C)C4)cc3n2)cc1 [63a] , target or system recombinant 15-PGDH (Homo sapiens (Human), UniProt P15428).
7.70 to 8.40

Find the measured pIC50: item COC(=O)CNC(=O)c1ccc2nc(-c3ccccc3)c(-c3ccccc3)nc2c1 [16b] , target or system recombinant 15-PGDH (Homo sapiens (Human), UniProt P15428).
< 5.60

Find the measured pIC50: item O=C(c1ccc2nc(-c3ccccc3)[nH]c2c1)N1CCCCC1 [32b] , target or system recombinant 15-PGDH (Homo sapiens (Human), UniProt P15428).
6.30 to 7.00

Find the measured pIC50: item CCCC[S+]([O-])c1cc2nc(-c3ccc(OC)cc3)cc(-c3cnn(C)c3)n2n1 (centres unmarked) [53a] , target or system recombinant 15-PGDH (Homo sapiens (Human), UniProt P15428).
5.60 to 6.30

Find the measured pIC50: item COc1ccc(-c2cc(N3CCCCC3)n3nc(C(=O)N4CCCCC4)cc3n2)cc1 [44a] , target or system recombinant 15-PGDH (Homo sapiens (Human), UniProt P15428).
6.30

Find the measured pIC50: item COc1ccc(-c2cc(C(F)(F)F)n3nc(C(=O)N4CCOCC4)cc3n2)cc1 [10a] , target or system recombinant 15-PGDH (Homo sapiens (Human), UniProt P15428).
6.30 to 7.00

Find the measured pIC50: item COc1ccc(-c2cc(OC)n3nc(C(=O)N4CCCCC4)cc3n2)cc1 [33a] , target or system recombinant 15-PGDH (Homo sapiens (Human), UniProt P15428).
7.00 to 7.70

Find the measured pIC50: item O=C(c1ccc2ncc(-c3ccc4c(=O)[nH]cc(Cl)c4c3)nc2c1)N1CCCCC1 [92b] , target or system recombinant 15-PGDH (Homo sapiens (Human), UniProt P15428).
> 8.40

Find the measured pIC50: item CNC(=O)c1ccc(-c2cnc3ccc(C(=O)N4CCCCC4)cc3n2)cc1 [80b] , target or system recombinant 15-PGDH (Homo sapiens (Human), UniProt P15428).
8.40

Find the measured pIC50: item CCCC[S+]([O-])c1nc2nc(-c3ccc(OC)cc3)cc(-c3ccccc3)n2n1 (centres unmarked) [55a] , target or system recombinant 15-PGDH (Homo sapiens (Human), UniProt P15428).
< 5.60

Find the measured pIC50: item O=C(c1ccc2ncc(-c3cc(F)cc(F)c3)nc2c1)N1CCCCC1 [47b] , target or system recombinant 15-PGDH (Homo sapiens (Human), UniProt P15428).
7.80

Find the measured pIC50: item COc1ccc(-c2cc(C(F)(F)F)n3nc(C(=O)N4CCC(CO)CC4)cc3n2)cc1 [16a] , target or system recombinant 15-PGDH (Homo sapiens (Human), UniProt P15428).
> 7.00

Find the measured pIC50: item COc1ccc(-c2cc(C(F)(F)F)n3nc(C(=O)N4CCC(OC)CC4)cc3n2)cc1 [21a] , target or system recombinant 15-PGDH (Homo sapiens (Human), UniProt P15428).
6.30 to 7.00

Find the measured pIC50: item COc1ccc(-c2cc(C(F)(F)F)n3nc(C(=O)N4CCC(F)CC4)cc3n2)cc1 [15a] , target or system recombinant 15-PGDH (Homo sapiens (Human), UniProt P15428).
7.38
